- test_target: Adenosine receptor A3 (Bos taurus)
- experimental_details: Displacement of [125I]AB-MECA from adenosine A3 receptors in bovine cortical membranes
assay_readout: Ki (nM)
Record the value in nM, omitting the unit from your answer.

So what Ki did CNC(=O)[C@H]1O[C@@H](n2cnc3c(NCc4cccc(I)c4)ncnc32)[C@](C)(O)[C@@H]1O get with Adenosine receptor A3 (Bos taurus)? 240
